- target.of.assay: human GABAA α2β2γ1 receptor (Homo sapiens (Human), UniProt P47869+Q8N1C3)
- protocol.text: Radioligand binding assay, [3H]RO7239181 competition, γ1-containing GABAA subtypes
- assay.conditions: Log[Ki α1β3γ2 (nM)/Ki α2β2γ1 (nM)]
reported.property: LogSel

- C[C@@H]1N=C(c2c(F)cccc2F)c2c(ccc(Br)c2Cl)-n2cnnc21: 1.9
- Cc1cc(-c2nnc3n2-c2ccc(Cl)c(Cl)c2C(c2c(F)cccc2F)=N[C@H]3C)nc(C)n1: 1.53
- CC[C@@H]1N=C(c2c(F)cccc2F)c2c(ccc(Br)c2Cl)-n2c(C)nnc21: 1.31
- Cc1nnc2n1-c1ccc(C(F)(F)F)cc1C(c1c(F)cccc1F)=NC2 [RE-B, reference compound]: −0.64

Enter reported LogSel observed with human GABAA α2β2γ1 receptor (Homo sapiens (Human), UniProt P47869+Q8N1C3) for `C[C@@H]1N=C(c2c(F)cccc2F)c2c(ccc(Cl)c2Cl)-n2c(-c3cccnn3)nnc21` 2.27

Just for reference, patent US20240002393A1 is where these values come from.
